- tgt: Apelin receptor (Homo sapiens) (UniProt P35414)
- Sequence (P35414 whole entry, looked up): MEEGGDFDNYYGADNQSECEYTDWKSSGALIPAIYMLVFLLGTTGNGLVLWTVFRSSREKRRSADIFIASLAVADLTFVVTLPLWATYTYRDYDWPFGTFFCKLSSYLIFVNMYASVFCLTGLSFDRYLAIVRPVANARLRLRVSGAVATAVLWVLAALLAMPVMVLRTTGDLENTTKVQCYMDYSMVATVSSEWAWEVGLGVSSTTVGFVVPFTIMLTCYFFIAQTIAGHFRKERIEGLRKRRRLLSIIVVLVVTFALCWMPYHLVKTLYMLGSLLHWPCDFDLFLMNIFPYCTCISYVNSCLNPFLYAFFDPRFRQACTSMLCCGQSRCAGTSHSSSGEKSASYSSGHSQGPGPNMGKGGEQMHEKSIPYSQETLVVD
- measurement_description: antagonists of human apelin receptor APJ, primary screen, CHO-K1 cells, beta-arrestin complementation, luminescence (AID 2521);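 note: cells challenged with 10 nM apelin-13 agonist together with compound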
- assay_conditions: at 20 µM
In all, about 330,000 compounds went through this assay and about 1,100 (0.33%) were called active.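 Rule for the calls: active = inhibition above about 40% at 20 µM (limit read from the data); inactive = the rest.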 The sample as a whole holds a higher share of actives than the screen did.
Outcomes: active, inactive

> print(dat)
                           structure.smiles  discrete.label
1  CN1/C(=c2/s/c(=C3/C(=O)N(c4ccccc4)NC3=Nc3ccccc3)n(C)c2=O)C(C)(C)c2ccccc21          active
2           CSC1=N/C(=C\C=C\c2cccs2)C(=O)S1        inactive
3   CCCc1nc2oc3c(OCC)ncnc3c2c2c1COC(C)(C)C2        inactive
4     O=S(=O)(NCCc1ccc(F)cc1)c1cccc2cccnc12        inactive
5  NS(=O)(=O)c1ccc(CCNS(=O)(=O)c2cccc3cccnc23)cc1        inactive
